- tested-system: Gal3S4S(b1-4)GlcNAc
- assay-name: glycan array binding signal (z-score within array); higher = stronger binding
- conditions-used: glycan notation: IUPAC condensed, linker removed
Shown is part of a subset that was picked to be rich in the strongest signals.
# binarize glycan array binding signal (z-score): threshold -0.2 inclusive, high side y, low side n

Worked examples, 4 binders total:
LFA (Limax flavus) (protein) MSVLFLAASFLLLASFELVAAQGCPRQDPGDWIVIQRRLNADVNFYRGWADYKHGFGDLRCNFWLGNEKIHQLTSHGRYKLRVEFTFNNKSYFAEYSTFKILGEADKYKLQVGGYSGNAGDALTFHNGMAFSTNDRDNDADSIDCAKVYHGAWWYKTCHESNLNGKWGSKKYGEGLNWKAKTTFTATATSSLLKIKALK :: n
Gal 3C (Homo sapiens), P17931 (protein) YGAPAGPLIVPYNLPLPGGVVPRMLITILGTVKPNANRIALDFQRGNDVAFHFNPRFNENNRRVIVCNTKLDNNWGREERQSVFPFESGKPFKIQVLVEPDHFKVAVNDAHLLQYNHRVKKLNEISKLGISGDIDLTSASYTMI :: n
MAL-II (Maackia amurensis), P93248 (protein) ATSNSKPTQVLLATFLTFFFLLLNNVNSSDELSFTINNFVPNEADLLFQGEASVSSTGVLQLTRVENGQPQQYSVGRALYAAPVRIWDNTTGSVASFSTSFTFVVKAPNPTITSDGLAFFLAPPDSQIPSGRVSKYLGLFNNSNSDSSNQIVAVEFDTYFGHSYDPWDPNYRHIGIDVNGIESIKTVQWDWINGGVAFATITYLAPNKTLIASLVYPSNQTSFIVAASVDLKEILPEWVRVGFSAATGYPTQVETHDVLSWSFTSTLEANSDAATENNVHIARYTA :: y
Pp2-A2 (Arabidopsis thaliana), Q07098 (protein) MPSNGDLDRQIEQLMECKPLSEADVRTLCDQARAILVEEYNVQPVKCPVTVCGDIHGQFYDLIELFRIGGNAPDTNYLFMGDYVDRGYYSVETVSLLVALKVRYRDRLTILRGNHESRQITQVYGFYDECLRKYGNANVWKYFTDLFDYLPLTALIESQVFCLHGGLSPSLDTLDNIRSLDRIQEVPHEGPMCDLLWSDPDDRCGWGISPRGAGYTFGQDIAAQFNHNNGLSLISRAHQLVMEGFNWCQDKNVVTVFSAPNYCYRCGNMAAILEIGENMEQNFLQFDPAPRQVEPDTTRKTPDYFL :: y

Proceed to the following item.
Hello, I need to know if GIINTLQKYYCRVRGGRCAVLSCLPKEEQIGKCSTRGRKCCRRKK [Beta-Defensin 3 (Homo sapiens), P81534] has measured glycan array binding signal (z-score) not below -0.2. Thanks!
y
